The reported numbers originate from paper PMC5706701.

Biological target: Human IP6K1 (Homo sapiens, UniProt Q92551)
Construct: GST (N, cleaved yes); made in house; host or cells: C43 E. coli, pGEX-6P-2
Sequence (Q92551 whole entry): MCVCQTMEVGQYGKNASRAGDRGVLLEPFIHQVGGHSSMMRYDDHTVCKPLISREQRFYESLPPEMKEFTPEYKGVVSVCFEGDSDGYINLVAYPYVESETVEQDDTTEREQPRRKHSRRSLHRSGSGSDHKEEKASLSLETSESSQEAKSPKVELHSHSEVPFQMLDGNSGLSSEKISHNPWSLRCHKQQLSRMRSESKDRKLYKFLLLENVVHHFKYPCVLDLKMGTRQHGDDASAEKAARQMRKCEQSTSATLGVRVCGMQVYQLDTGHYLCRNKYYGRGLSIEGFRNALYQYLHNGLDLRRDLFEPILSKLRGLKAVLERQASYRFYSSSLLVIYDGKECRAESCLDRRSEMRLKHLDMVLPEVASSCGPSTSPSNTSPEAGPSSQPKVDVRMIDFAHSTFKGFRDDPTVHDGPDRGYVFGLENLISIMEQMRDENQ
Test: IP6K1 high-throughput screen of the Sigma LOPAC (ADP-Glo Max, single point);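 also: final compound concentration 10µM in 5% DMSO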
Assay type: biochemical
Conditions: Sigma LOPAC single-point screen, ADP-Glo Max raw signal per well
value-type: Raw Signal
Answer with the value's number alone.

- molecule: "O=C1c2c(O)cc(O)cc2OC(c2ccc(O)c(O)c2)C1O (racemic) [(±)-Taxifolin]"
  reading: 61241
- molecule: "CCCN(CCC)C(=O)Cc1c(-c2ccc(Cl)cc2)nc2c(Cl)cc(Cl)cn12"
  reading: 60254
- molecule: "Clc1ccccc1C(c1ccccc1)(c1ccccc1)n1ccnc1"
  reading: 61041
- molecule: "CN(Cc1cnc2nc(N)nc(N)c2n1)c1ccc(C(=O)N[C@@H](CCC(=O)O)C(=O)O)cc1 [Methotrexate]"
  reading: 60039

Then this molecule:
[Q] Indicate its recorded Raw Signal; the molecule in question is O=C(O)C1CN(CCCP(=O)(O)O)CCN1 (racemic) [(±)-CPP]
[A] 59493

###

Molecular target: Human IP6K1 (Homo sapiens, UniProt Q92551)
Construct: GST (N, cleaved yes); made in house; host or cells: C43 E. coli, pGEX-6P-2
Assay: IP6K1 high-throughput screen of the Sigma LOPAC (ADP-Glo Max, single point);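 also: final compound concentration 10µM in 5% DMSO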
Format: biochemical
Conditions: Sigma LOPAC single-point screen, ADP-Glo Max raw signal per well
Structures can show the parent of a compound that is named as a salt.
The threshold is inclusive: Raw Signal of exactly 60000 counts as rule met; values below receive rule not met.

- molecule: "CC[C@]1(O)C[C@H]2CN(CCc3c([nH]c4ccccc34)[C@@](C(=O)OC)(c3cc4c(cc3OC)N(C=O)[C@H]3[C@@](O)(C(=O)OC)[C@H](OC(C)=O)[C@]5(CC)C=CCN6CC[C@]43[C@@H]65)C2)C1 [Vincristine sulfate]"
  category: "rule not met"
- molecule: "C=CCn1c(=O)c2c(nc(-c3ccc(S(=O)(=O)O)cc3)n2C)n(C)c1=O"
  category: "rule met"
- molecule: "N=C(N)NC(=O)c1nc(Cl)c(N)nc1N [Amiloride hydrochloride]"
  category: "rule met"
- molecule: "CC1CCN=C(N)S1.Cl (racemic) [(±)-AMT hydrochloride]"
  category: "rule met"

[Q] Please indicate if the recorded Raw Signal for C[C@]12CCC(=O)C=C1CC[C@@H]1[C@@H]2C(=O)C[C@@]2(C)[C@H]1CC[C@]2(O)C(=O)CO [Cortisone] meets or exceeds 60000.
[A] rule met

[Q] Please indicate if the recorded Raw Signal for CCCCC#Cc1nc(N)c2ncn([C@@H]3O[C@H](C(=O)NCC)[C@@H](O)[C@H]3O)c2n1 [HE-NECA] meets or exceeds 60000.
[A] rule not met

[Q] Please indicate if the recorded Raw Signal for COc1ccc2cc([C@H](C)C(=O)[O-])ccc2c1.[Na+] [(-)-Naproxen sodium] meets or exceeds 60000.
[A] rule not met

###

# reported Raw Signal; entries follow
Target: Human IP6K1 (Homo sapiens, UniProt Q92551)
Construct: GST (N, cleaved yes); made in house; host or cells: C43 E. coli, pGEX-6P-2
Test: IP6K1 high-throughput screen of the Sigma LOPAC (ADP-Glo Max, single point);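 also: final compound concentration 10µM in 5% DMSO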
Format: biochemical
Details: LOPAC single-point screen, ADP-Glo Max raw signal per well
Answer with the value's number alone.

- molecule: "Cl.NC[C@@H]1O[C@H](C23CC4CC(CC(C4)C2)C3)Cc2c1ccc(O)c2O [A-77636 hydrochloride]"
  experimental-system: "Human IP6K1 (Homo sapiens, UniProt Q92551)"
  reading: 56453
- molecule: "O=C1C(SCCO)=C(SCCO)C(=O)c2ccccc21"
  experimental-system: "Human IP6K1 (Homo sapiens, UniProt Q92551)"
  reading: 55516
- molecule: "CCN1CCc2nc(N)oc2CC1.Cl.Cl [B-HT 933 dihydrochloride]"
  experimental-system: "Human IP6K1 (Homo sapiens, UniProt Q92551)"
  reading: 56378
- molecule: "S=C(Nc1ccccc1)Nc1nccs1"
  experimental-system: "Human IP6K1 (Homo sapiens, UniProt Q92551)"
  reading: 53752

Then this molecule:
[Q] Indicate its recorded Raw Signal; the molecule in question is `S=C=Nc1ccc2oc(C3=NCCN3)cc2c1`
[A] 56328
